Target: HGF (hepatocyte growth factor/scatter factor) (UniProt P14210;P14210 P14210:32-494,P14210:495-728)
Sequence (P14210 32-494, chain 1 of 2): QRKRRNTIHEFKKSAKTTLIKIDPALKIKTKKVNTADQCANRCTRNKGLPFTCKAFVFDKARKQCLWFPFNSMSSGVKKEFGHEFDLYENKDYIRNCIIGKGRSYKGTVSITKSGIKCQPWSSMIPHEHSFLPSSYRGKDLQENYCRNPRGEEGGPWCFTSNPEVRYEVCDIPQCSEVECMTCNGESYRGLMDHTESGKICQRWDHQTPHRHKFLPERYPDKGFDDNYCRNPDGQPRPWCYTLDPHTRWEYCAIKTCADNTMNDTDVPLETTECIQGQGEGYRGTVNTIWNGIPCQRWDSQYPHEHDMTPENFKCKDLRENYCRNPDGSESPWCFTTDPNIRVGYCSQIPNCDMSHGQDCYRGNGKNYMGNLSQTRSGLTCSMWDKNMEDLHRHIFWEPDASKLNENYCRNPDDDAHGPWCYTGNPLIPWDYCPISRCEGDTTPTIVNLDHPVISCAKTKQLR
Sequence (P14210 495-728, chain 2 of 2): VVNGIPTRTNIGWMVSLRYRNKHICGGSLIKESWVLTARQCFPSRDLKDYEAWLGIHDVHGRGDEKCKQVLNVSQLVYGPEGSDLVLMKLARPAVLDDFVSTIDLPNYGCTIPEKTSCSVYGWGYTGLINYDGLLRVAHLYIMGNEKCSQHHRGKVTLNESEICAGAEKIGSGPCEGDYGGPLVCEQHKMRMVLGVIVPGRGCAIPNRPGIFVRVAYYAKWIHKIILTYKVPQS
Assay: filter; HBSMC, 37C
Conditions: tags: R&D Systems
measurementType: pKd
FYI, pKd means -log10 of a concentration in mol per litre.

Solved cases below.
10-47 (ssRNA, 2'-F pyrimidines) RNA: GGGAGAUAAGAAUAAACGCUCAAGUCAAGAGGAAAUGACACGGCUCCACUUUUAUUCGACAGGAGGCUCACAACAGGC = 9.41
11-223 (ssRNA, 2'-F pyrimidines) RNA: GGGAGGACGAUGCGGUCAGUAUGGCUUCUAUAGCUCGUUCCUCGGCAGACGACUCGCCCGA = 9.92
8-103 (ssRNA, 2'-F pyrimidines) RNA: GGGAGGACGAUGCGGGCCGAAAAUUCGUCGACAUCUCCCUGUCUGCAGACGACUCGCCCGA = 9.92

Any idea what its pKd is? The binder is 10-52 (ssRNA, 2'-F pyrimidines) RNA: GGGAGAUAAGAAUAAACGCUCAAUCUUAUUGUGUCCAGCUUCUCCCUGCAGGCUUCGACAGGAGGCUCACAACAGGC 9.80

Fill in: pKd of 10-18 (ssRNA, 2'-F pyrimidines) RNA: GGGAGAUAAGAAUAAACGCUCAACGUGAUUCCUACCAUCAGGUACCUAUCUUGUUCGACAGGAGGCUCACAACAGGC is ___ 9.52
